test system: Echinochloa crus-galli; experiment: Post-emergence herbicidal activity against one-leaf stage of Echinochloa crus-galli (barnyard grass) under greenhouse condition at 750 g /ha measured after 24 days by spray method; type: functional; settings: 576 h, read-out: GI
Parameter threshold = 30%. Response is Condition met when inhibition of growth at 750 g/ha meets or exceeds it, else Condition not met.

As a guide, the following entries are already answered.
[[record]]
compound_smiles = "Cc1cc(-c2cccc(C(F)(F)F)c2)c(OCc2ccc(Cl)cc2)nn1"
discrete_label = "Condition not met"

[[record]]
compound_smiles = "Cc1cc(-c2cccc(C(F)(F)F)c2)c(OCc2ccccc2C)nn1"
discrete_label = "Condition met"

[[record]]
compound_smiles = "Cc1cc(-c2cccc(C(F)(F)F)c2)c(Oc2ccccc2C(F)(F)F)nn1"
discrete_label = "Condition not met"

[[record]]
compound_smiles = "Cc1ccc(COc2nnc(C)cc2-c2cccc(C(F)(F)F)c2)cc1"
discrete_label = "Condition not met"


IN: Textbook exercise: given the entry Cc1cc(-c2cccc(C(F)(F)F)c2)c(Oc2c(C)cccc2C)nn1 , state whether its inhibition of growth at 750 g/ha is greater than or equal to 30%.
OUT: Condition not met

IN: Entry Cc1cccc(COc2nnc(C)cc2-c2cccc(C(F)(F)F)c2)c1 please
OUT: Condition not met

IN: Also need Cc1cc(-c2cccc(C(F)(F)F)c2)c(OCc2ccc(F)cc2)nn1 , thanks.
OUT: Condition not met

IN: For Cc1cc(-c2cccc(C(F)(F)F)c2)c(Oc2cccc(Br)c2)nn1 then?
OUT: Condition met

IN: Let us now turn to Cc1cc(-c2cccc(C(F)(F)F)c2)c(Oc2ccc(Br)cc2)nn1
OUT: Condition met

IN: Then this molecule: Cc1cc(C)cc(COc2nnc(C)cc2-c2cccc(C(F)(F)F)c2)c1
OUT: Condition not met

IN: Would you kindly repeat that for Cc1cc(-c2cccc(C(F)(F)F)c2)c(Oc2cccc(C(F)(F)F)c2)nn1 ?
OUT: Condition met

IN: Another molecule: Cc1cc(-c2cccc(C(F)(F)F)c2)c(OCc2cccc(Br)c2)nn1
OUT: Condition not met

IN: Now try Cc1cc(-c2cccc(C(F)(F)F)c2)c(Oc2ccc(Cl)c(Cl)c2)nn1 .
OUT: Condition met

IN: Continue with Cc1cc(-c2cccc(C(F)(F)F)c2)c(Oc2ccccc2C)nn1
OUT: Condition not met

IN: How about Cc1cc(-c2cccc(C(F)(F)F)c2)c(Oc2ccc(F)cc2)nn1 ?
OUT: Condition met

IN: # repeat for Cc1cc(-c2cccc(C(F)(F)F)c2)c(Oc2cc(F)cc(F)c2)nn1
OUT: Condition met

IN: Another molecule to check: Cc1cc(-c2cccc(C(F)(F)F)c2)c(OCc2ccc(Br)cc2)nn1
OUT: Condition not met

IN: Again, but for O=C(Nc1ccc(F)cc1F)c1cccnc1Oc1cccc(C(F)(F)F)c1
OUT: Condition met

IN: Consider next the molecule Cc1cc(-c2cccc(C(F)(F)F)c2)c(Oc2cccc(Cl)c2)nn1 in the same way.
OUT: Condition met

IN: Further, for Cc1cc(-c2cccc(C(F)(F)F)c2)c(Oc2ccccc2Cl)nn1 ?
OUT: Condition not met

IN: Try Cc1cc(-c2cccc(C(F)(F)F)c2)c(OCc2cccc(Cl)c2)nn1 next.
OUT: Condition not met

IN: Another: Cc1cc(-c2cccc(C(F)(F)F)c2)c(OCc2ccccc2Cl)nn1
OUT: Condition not met
